# Test system: methicillin-susceptible S. aureus (MSSA, 22)
# PROTOCOL: MIC broth microdilution, MSSA
# STATED CONDITIONS: MSSA (22)
Please provide measured MIC 90% for the entries that follow.
Give bare numbers, in µg/mL.

The following molecules have reported results that may help.
Reported MIC 90% of CNC(CC(C)C)C(=O)NC1C(=O)NC(CC(N)=O)C(=O)NC2C(=O)NC3C(=O)NC(C(=O)NC(C(=O)O)c4cc(O)c(CNCCOCCOCCN)c(O)c4-c4cc3ccc4O)C(O)c3ccc(c(Cl)c3)Oc3cc2cc(c3OC2OC(CO)C(O)C(O)C2OC2CC(C)(NCc3ccc(OCc4ccc(Cl)c(Cl)c4)cc3)C(O)C(C)O2)Oc2ccc(cc2Cl)C1O (stereo not drawn) : 0.06

Per the record, CCCCCCCCCCNCCNC1(C)CC(OC2C(Oc3c4cc5cc3Oc3ccc(cc3Cl)C(O)C3NC(=O)C(NC(=O)C5NC(=O)C(CC(N)=O)NC(=O)C(NC(=O)C(CC(C)C)NC)C(O)c5ccc(c(Cl)c5)O4)c4ccc(O)c(c4)-c4c(cc(O)c(CNCCOCCOCC[N+](C)(C)C)c4O)C(C(=O)O)NC3=O)OC(CO)C(O)C2O)OC(C)C1O (stereo not drawn) has MIC 90% of 0.06

***
Query CCCCCCCCCCNCCNC1(C)CC(OC2C(Oc3c4cc5cc3Oc3ccc(cc3Cl)C(O)C3NC(=O)C(NC(=O)C5NC(=O)C(CC(N)=O)NC(=O)C(NC(=O)C(CC(C)C)NC)C(O)c5ccc(c(Cl)c5)O4)c4ccc(O)c(c4)-c4c(O)cc(O)cc4C(C(=O)NCCOCCOCCN)NC3=O)OC(CO)C(O)C2O)OC(C)C1O (stereo not drawn) yields MIC 90% of 0.12
